These data points were gathered from paper PMC8955485.

Target: F508del-CFTR (Homo sapiens, UniProt P13569, DEL508-508)
Sequence (P13569 with tags, fused parts or gaps DEL508-508): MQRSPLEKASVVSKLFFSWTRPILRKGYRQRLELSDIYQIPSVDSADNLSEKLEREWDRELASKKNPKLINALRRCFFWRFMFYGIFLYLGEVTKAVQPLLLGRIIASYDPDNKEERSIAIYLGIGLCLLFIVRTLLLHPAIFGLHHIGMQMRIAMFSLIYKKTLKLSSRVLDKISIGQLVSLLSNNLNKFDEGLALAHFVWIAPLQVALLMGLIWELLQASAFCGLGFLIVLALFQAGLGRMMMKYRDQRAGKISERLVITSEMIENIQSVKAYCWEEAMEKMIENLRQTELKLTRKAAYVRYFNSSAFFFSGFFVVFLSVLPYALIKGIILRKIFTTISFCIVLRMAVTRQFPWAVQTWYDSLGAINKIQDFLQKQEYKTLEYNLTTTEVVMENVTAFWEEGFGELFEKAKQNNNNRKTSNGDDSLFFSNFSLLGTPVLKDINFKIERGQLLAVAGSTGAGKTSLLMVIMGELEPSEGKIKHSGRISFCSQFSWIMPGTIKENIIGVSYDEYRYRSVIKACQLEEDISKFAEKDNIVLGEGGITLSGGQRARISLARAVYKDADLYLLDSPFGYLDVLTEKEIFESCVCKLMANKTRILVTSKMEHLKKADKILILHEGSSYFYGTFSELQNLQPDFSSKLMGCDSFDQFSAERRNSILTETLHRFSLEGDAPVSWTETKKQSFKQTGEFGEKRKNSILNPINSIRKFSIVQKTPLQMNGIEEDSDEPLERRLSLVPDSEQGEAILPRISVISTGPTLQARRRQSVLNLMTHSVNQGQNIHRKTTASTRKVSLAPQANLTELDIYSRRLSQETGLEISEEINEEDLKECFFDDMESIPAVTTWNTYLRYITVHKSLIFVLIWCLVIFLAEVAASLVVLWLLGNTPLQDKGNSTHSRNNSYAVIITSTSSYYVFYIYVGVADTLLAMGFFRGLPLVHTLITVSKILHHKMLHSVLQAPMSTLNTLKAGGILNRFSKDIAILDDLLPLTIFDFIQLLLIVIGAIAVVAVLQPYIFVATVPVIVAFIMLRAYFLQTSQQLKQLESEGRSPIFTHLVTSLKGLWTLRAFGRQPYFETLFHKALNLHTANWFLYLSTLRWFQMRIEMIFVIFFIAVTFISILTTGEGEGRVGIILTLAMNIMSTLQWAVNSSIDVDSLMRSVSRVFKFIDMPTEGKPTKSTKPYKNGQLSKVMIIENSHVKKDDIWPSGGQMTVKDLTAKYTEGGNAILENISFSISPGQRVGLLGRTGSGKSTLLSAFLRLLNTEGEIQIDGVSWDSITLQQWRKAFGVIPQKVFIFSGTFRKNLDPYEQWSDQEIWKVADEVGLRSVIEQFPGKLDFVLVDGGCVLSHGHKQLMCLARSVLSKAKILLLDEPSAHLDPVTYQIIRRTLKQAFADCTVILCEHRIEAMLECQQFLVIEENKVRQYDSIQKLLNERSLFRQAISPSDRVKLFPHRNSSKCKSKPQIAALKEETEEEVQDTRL
Test: HS-YFP functional assay for F508del-CFTR correctors in CFBE41o- cells
Type: cell-based
Design: expressed in transfected cells
Settings: CFBE41o- cells stably expressing F508del-CFTR and HS-YFP; 24 h incubation; stimulation with forskolin 20 µM plus VX-770 1 µM
pEC50: −log10 of the molar value.
Listing: pEC50 of selected molecules
Result type: pEC50

| Molecule | Measured result |
| --- | --- |
| COc1ccc(-c2nc(NC(=O)C3(c4ccc5c(c4)OCO5)CC3)sc2C(=O)c2cccc(OC)c2)cc1 [Compound 9h] | 6.92 |
| COc1ccc(C(=O)c2sc(NC(=O)C3(c4ccc5c(c4)OCO5)CC3)nc2-c2ccccc2OC)cc1 [Compound 9p] | 6.66 |
| COc1ccc(-c2nc(NC(=O)C3(c4ccc5c(c4)OCO5)CC3)sc2C(=O)c2ccc(SC)cc2)cc1 [Compound 9d] | 7.00 |
| CSc1ccc(-c2nc(NC(=O)C3(c4ccc5c(c4)OCO5)CC3)sc2C(=O)c2ccc(-c3ccccc3)cc2)cc1 [Compound 9s] | 6.89 |
| COc1ccc(C(=O)c2sc(NC(=O)C3(c4ccc5c(c4)OCO5)CC3)nc2-c2ccc(OC)cc2)cc1 [Compound 9b] | 7.19 |
| CCOC(=O)c1ccc(C(=O)c2sc(NC(=O)C3(c4ccc5c(c4)OCO5)CC3)nc2-c2cccc(OC)c2)cc1 [Compound 9l] | 6.31 |
| COc1cccc(-c2nc(NC(=O)C3(c4ccc5c(c4)OCO5)CC3)sc2C(=O)c2ccc(N3CCCC3)cc2)c1 [Compound 9n] | 6.22 |
| COc1cccc(-c2nc(NC(=O)C3(c4ccc5c(c4)OCO5)CC3)sc2C(=O)c2ccc(SC)cc2)c1 [Compound 9k] | 6.44 |
| COc1cccc(-c2nc(NC(=O)C3(c4ccc5c(c4)OCO5)CC3)sc2C(=O)c2ccc(-c3ccccc3)cc2)c1 [Compound 9m] | 6.13 |
| COc1ccc(-c2nc(NC(=O)C3(c4ccc5c(c4)OCO5)CC3)sc2C(=O)c2ccccc2)cc1 [Compound 9a] | 6.46 |
| CSc1ccc(C(=O)c2sc(NC(=O)C3(c4ccc5c(c4)OCO5)CC3)nc2-c2ccc(SC)cc2)cc1 [Compound 9z] | 6.52 |
| CCOC(=O)c1ccc(C(=O)c2sc(NC(=O)C3(c4ccc5c(c4)OCO5)CC3)nc2-c2ccc(OC)cc2)cc1 [Compound 9e] | 6.25 |
